For each record, write down the corresponding IC50.
molecular target: High affinity choline transporter 1 (Homo sapiens, UniProt Q9GZV3); assay: human choline transporter blockers, potency – cell-based, 5-point CRC, membrane potential dye, dose response (AID 504840); assay type: functional
Sequence (Q9GZV3 whole entry): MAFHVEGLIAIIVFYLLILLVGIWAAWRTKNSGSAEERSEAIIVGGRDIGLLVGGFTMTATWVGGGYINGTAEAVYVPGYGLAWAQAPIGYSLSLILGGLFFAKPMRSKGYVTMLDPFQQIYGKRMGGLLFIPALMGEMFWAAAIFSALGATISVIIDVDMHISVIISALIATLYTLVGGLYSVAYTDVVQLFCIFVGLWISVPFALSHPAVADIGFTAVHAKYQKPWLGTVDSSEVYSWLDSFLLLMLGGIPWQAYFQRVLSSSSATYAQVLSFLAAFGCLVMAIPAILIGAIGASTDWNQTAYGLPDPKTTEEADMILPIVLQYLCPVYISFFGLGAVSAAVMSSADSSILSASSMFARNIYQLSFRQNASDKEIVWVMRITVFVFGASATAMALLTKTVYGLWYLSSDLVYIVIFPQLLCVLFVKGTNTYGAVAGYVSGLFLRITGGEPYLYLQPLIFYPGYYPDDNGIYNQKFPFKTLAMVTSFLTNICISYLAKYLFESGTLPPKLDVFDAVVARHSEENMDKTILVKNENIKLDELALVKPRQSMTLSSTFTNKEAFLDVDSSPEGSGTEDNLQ
Calls of active or inactive are those of the source. No rule for the calls is given here.

Specify measured IC50 for "CC#CCN(CC#CC)S(=O)(=O)c1ccc(-n2cnnn2)c(OC)c1" . 3.16 µM (active)

Specify measured IC50 for COc1ccc(C(CNC(=O)c2cccc(NS(=O)(=O)c3ccc(C)c(F)c3)c2)N2CCCC2)cc1 (stereo not given) . 15.8 µM (active)

Specify measured IC50 for "COc1ccc(C(=O)N(C)CCCC2CCCC2)cc1OC1CCN(C(C)C)CC1" . 12 µM (active)

Specify measured IC50 for "Cc1cccc(C)c1NC(=O)c1ccc(CN2CCc3ccccc3C2)cc1" . 18.2 µM (active)

Specify measured IC50 for "Cc1cc(C)c(NC(=O)c2ccc(CN3CCc4ccccc4C3)cc2)c(C)c1" . 12.9 µM (active)
